Every entry's value here was drawn from PubChem BioAssay (Tox21).

Biological target: Muscarinic acetylcholine receptor M1 (Homo sapiens) (UniProt P11229)
Sequence (P11229 whole entry, looked up): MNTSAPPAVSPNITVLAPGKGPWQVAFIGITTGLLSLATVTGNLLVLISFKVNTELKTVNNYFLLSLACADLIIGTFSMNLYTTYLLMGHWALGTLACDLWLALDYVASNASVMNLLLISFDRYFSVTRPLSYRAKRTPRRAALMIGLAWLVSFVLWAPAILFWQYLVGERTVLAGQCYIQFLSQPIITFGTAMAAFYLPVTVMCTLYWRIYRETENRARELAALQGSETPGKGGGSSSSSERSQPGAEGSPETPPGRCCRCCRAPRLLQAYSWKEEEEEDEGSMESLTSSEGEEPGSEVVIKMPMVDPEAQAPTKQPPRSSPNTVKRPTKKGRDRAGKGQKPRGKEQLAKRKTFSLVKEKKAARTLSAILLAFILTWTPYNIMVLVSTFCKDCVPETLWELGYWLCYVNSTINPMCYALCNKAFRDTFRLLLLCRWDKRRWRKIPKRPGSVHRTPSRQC
Test: Cholinergic receptor muscarinic 1 (CHRM1) small molecule antagonists, cell-based qHTS assay (AID 1963588); also: nearly all actives have a fitted effect of over 40% in size
Details: CHRM1-CHO antagonist mode, calcium flux fluorescence; series mostly up to 61.5 µM
Inconclusive results are not listed. Active and inactive are the calls of the source. Calls follow the shape of the full dose curve.
Classes to choose from: yes = active, no = inactive

**Query** Call for entry `C[C@H]1[C@H]2CC[C@H]3[C@@H]4CC=C5C[C@@H](N(C)C)CC[C@]5(C)[C@H]4CC[C@]23CN1C` :
**Result** yes

**Query** Status in this test for `COC(C)=O` ?
**Result** no

**Query** Field: outcome | Entry: `O=S(c1cc(Cl)cc(Cl)c1O)c1cc(Cl)cc(Cl)c1O`
**Result** no

**Query** Test call, this compound: `C/C(C=O)=C\c1ccccc1`
**Result** no

**Query** Query: recorded result category for `c1ccc(OCc2ccc(CCCN3CCOCC3)cc2)cc1` in this test
**Result** yes

**Query** Record request — test call for CCCCCCCC1CCC(=O)O1 (centres undefined)
**Result** no

**Query** Hey, what did the test say about `CC(C)n1nc(-c2cc3cc(O)ccc3[nH]2)c2c(N)ncnc21` ?
**Result** no

**Query** Query: recorded result category for `CCn1nc(C)c2c1C(=O)NCC(c1ccc(O)cc1)=N2` in this test
**Result** no

**Query** Outcome? `COC(=O)NCCC[Si](OC)(OC)OC`
**Result** no

**Query** Name the outcome recorded for `CN1CCN(C(=O)C2CCCCC2)CC1` in the assay.
**Result** no

**Query** Answer briefly: the call reported for `Cc1ccccc1N=Nc1ccc(N=Nc2c(O)ccc3ccccc23)c(C)c1` in this assay.
**Result** no

**Query** # outcome recorded in this test, key = `c1csc(SSc2cccs2)c1`
**Result** no

**Query** Returns: the outcome recorded for `C/C(CC(C)C)=N\O` in this assay.
**Result** no

**Query** I'd appreciate the recorded outcome for `O=C(Cl)c1ccc(F)c(Cl)c1` from this test.
**Result** no

====

Assay: cAMP Responsive Elements (CRE) small molecule antagonists, cell-based qHTS assay (AID 1963591)
Conditions: CRE-bla HEK293T, beta-lactamase FRET ratio; series mostly up to 92.4 µM
Results filed as inconclusive are left out. The source made the active and inactive calls. The call rests on the fitted dose curve; in most records, active means well fitted inhibition curve with a large enough effect in the signal ratio in the repeat runs (not every such curve was filed as active); inconclusive means weak or mixed curves, or effect the other way; inactive means flat fitted curve, though single readings scatter; the % refers to the signal ratio.
quantity.name: activity change, negative = inhibition

Here are 5 molecules together with their reported answers.
**Query** Name the recorded activity change, negative = inhibition for CCC(=O)C1CC(C(C)C)CC=C1C (stereo not drawn) .
**Result** inactive

**Query** Requested field: activity change, negative = inhibition. Item: `CCCCCOC(=O)Nc1nc(=O)n([C@@H]2O[C@H](C)[C@@H](O)[C@H]2O)cc1F`
**Result** inactive

**Query** Given the molecule `COP(=O)(O)OP(=O)(O)OC` , what is its reported activity change, negative = inhibition?
**Result** inactive

**Query** Form field: reported activity change, negative = inhibition of CCCCC(CC)COC(=O)c1ccccc1 (stereo not drawn)
**Result** inactive

**Query** Consider the molecule shown here: `O=C(/C=C/c1ccccc1)OCCc1ccccc1` What is its recorded activity change, negative = inhibition?
**Result** inactive

New cases:
**Query** Could you share which activity change, negative = inhibition value was measured for `CCC(C)[O-].CCC(C)[O-].CCOC(=O)/C=C(/C)[O-].[Al+3]` ?
**Result** inactive

**Query** Which activity change, negative = inhibition value is on record for `CC(=O)c1ccc2c(c1)N(CCCN(C)C)c1ccccc1S2` ?
**Result** inactive

**Query** Sample `Cc1ccc(C(=O)O)cc1[N+](=O)[O-]` — what was its activity change, negative = inhibition?
**Result** inactive

**Query** Suppose we examine the molecule `O=C1NCCN1` ; what activity change, negative = inhibition value has been reported?
**Result** inactive

**Query** I am curious: what activity change, negative = inhibition value has been reported for `CC(=O)C(=O)CC(C)C` ?
**Result** inactive

====

Target: 5-hydroxytryptamine receptor 2A (Homo sapiens) (UniProt P28223)
Sequence (P28223 whole entry, looked up): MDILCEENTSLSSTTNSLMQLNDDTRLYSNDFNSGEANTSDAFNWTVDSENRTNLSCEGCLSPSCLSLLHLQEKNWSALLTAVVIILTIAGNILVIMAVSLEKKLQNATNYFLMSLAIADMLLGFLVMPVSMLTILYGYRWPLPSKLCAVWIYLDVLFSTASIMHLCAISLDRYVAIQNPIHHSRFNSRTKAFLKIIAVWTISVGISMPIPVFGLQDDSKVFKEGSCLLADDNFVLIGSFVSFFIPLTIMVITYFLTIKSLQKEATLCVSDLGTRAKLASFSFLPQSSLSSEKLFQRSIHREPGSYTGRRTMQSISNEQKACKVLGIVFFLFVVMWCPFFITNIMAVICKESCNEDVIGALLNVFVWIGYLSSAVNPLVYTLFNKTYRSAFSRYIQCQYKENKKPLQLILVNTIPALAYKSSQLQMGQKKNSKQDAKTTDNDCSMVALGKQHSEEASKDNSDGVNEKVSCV
Test: 5-hydroxytryptamine receptor 2A (HTR2A) small molecule agonists, cell-based qHTS assay (AID 1963587); also: nearly all actives have a fitted effect of over 30% in size
Conditions: HTR2A-CHO cells, calcium flux fluorescence, agonist mode; series mostly up to 76.8 µM
Records with an inconclusive call do not appear. Calls of active or inactive are those of the source. Calls follow the shape of the full dose curve.
Tick one outcome: active, inactive

**Query** Called result for `Nc1nc2ccccc2n1Cc1ccc(F)cc1`
**Result** inactive

**Query** Test call for this molecule, please: `Cc1ccc(Cl)cc1N`
**Result** inactive

**Query** Hi, sorry to bother you, what did the test record for `CCCC(CCC)(C(=O)OCC)C(=O)OCC` ?
**Result** active

**Query** Please let me know the test result on file for `NNC(=O)CP(=O)(c1ccccc1)c1ccccc1` .
**Result** inactive

**Query** // return assay outcome for `CC(C)CC(C)(C)C`
**Result** inactive

**Query** Assay outcome for `O=C(O)c1ccc(-n2nc(-c3ccccc3O)nc2-c2ccccc2O)cc1` : what was it?
**Result** inactive

**Query** Just curious, what result did `CCCCN1C[C@H](O)[C@@H](O)[C@H](O)[C@H]1CO` get here?
**Result** inactive

**Query** Hi, sorry to bother you, what did the test record for `O=C(O)CCCCCCCCCCCBr` ?
**Result** inactive

**Query** Lab log entry: `Cc1ccc(C(C)C)cc2c(C)ccc1-2` — outcome as called in the assay?
**Result** inactive

**Query** Identify the outcome logged in this assay for the molecule shown: `CN(C)[C@@H]1C(=O)C(C(N)=O)=C(O)[C@@]2(O)C(=O)C3=C(O)c4c(O)cccc4C[C@H]3C[C@@H]12`
**Result** inactive

**Query** What did this assay record as the result for C=C(C)C(=O)OCCOC1CC2CC1C1C=CCC21 (stereo not drawn) ?
**Result** inactive

**Query** For this molecule, state the assay outcome: CC(=O)/C(C)=C/C1C(C)=CCCC1(C)C (stereo not drawn)
**Result** inactive

**Query** Could you please tell me the result logged for `CC(C)=CCOc1ccc(/C=C/C(=O)c2ccc(OCC=C(C)C)cc2OCC(=O)O)cc1` in this assay?
**Result** inactive

**Query** # lookup: test call for `C=CC(=O)N1CCOCC1`
**Result** inactive

**Query** Any idea what this test logged for `COc1ccc2c(c1)c(CC(=O)OC/C=C(\C)CC/C=C(\C)CCC=C(C)C)c(C)n2C(=O)c1ccc(Cl)cc1` ?
**Result** inactive

**Query** Outcome? `O=C(O)CNC(=O)CNC(=O)CNC(=O)CSC(=O)c1ccccc1`
**Result** inactive

**Query** Status in this test for `CC(C)c1ccc(O)c(C(C)C)c1` ?
**Result** active

**Query** Per the records of this test, what outcome belongs to `CN1CCN(C(=O)C2CCCCC2)CC1` ?
**Result** inactive

**Query** Identify the outcome logged in this assay for the molecule shown: `CCCCCCCCCCCCCCCCCC[N+](C)(C)C`
**Result** active

**Query** Which result was noted for this molecule in the test: `BrCCOc1ccccc1`
**Result** inactive

**Query** Called result for `CCOC(=O)COc1ccc2c(C)c(CCN(CC)CC)c(=O)oc2c1Cl`
**Result** inactive

**Query** For `CCOc1ccc(O)cc1` , which call appears in the assay record?
**Result** inactive

**Query** Can you look up the reported call for `COC(=O)NCCC[Si](OC)(OC)OC` for me?
**Result** inactive

**Query** Entry CC1(CO)CN(c2ccccc2)NC1=O (stereo not drawn) : call = ?
**Result** inactive

**Query** Recorded test call requested for `N[C@@H]1CONC1=O`
**Result** inactive

**Query** I'd appreciate the recorded outcome for `O=C(O)c1nc(Cl)c(Cl)c(Cl)c1Cl` from this test.
**Result** inactive

**Query** Which outcome was assigned to `[O-][N+](=Nc1ccccc1)c1ccccc1` in this test?
**Result** inactive

**Query** Each molecule tested received a call. Report the one for `CC1(C)CC(O)CC(C)(C)N1[O]` .
**Result** inactive

====

Assay: p53 small molecule agonists, cell-based qHTS assay with rat liver microsomes: qHTS cell viability counter screen (AID 1963580); also: nearly all actives have a fitted effect of over 45% in size
Settings: p53RE-bla HCT-116 + rat microsomes, ATP viability, 16 h; series mostly up to 66 µM
Text: National Center for Advancing Translational Sciences [NCATS] Division of Preclinical Innovation [DPI] U.S. Environmental Protection Agency [EPA] National Institutes of Environmental Health Sciences [NIEHS] National Toxicology Program [NTP] U.S. Food and Drug Administration [FDA] p53, a tumor suppressor protein, is activated following cellular insult, including DNA damage and other cellular stresses. […] The activation of the reporter gene under culture conditions can be detected by fluorescence intensity. […]
Records with an inconclusive call do not appear. Active and inactive are the calls of the source. Calls come from the whole dose curve.
I would appreciate it if you answered using one of these outcomes: active, inactive

**Query** Answer briefly: the call reported for `O=C(O)Cc1ccc(Cl)cc1Cl` in this assay.
**Result** inactive

**Query** Each compound tested received a call. Report the one for `O=C(N[C@H](CO)[C@H](O)c1ccc([N+](=O)[O-])cc1)C(Cl)Cl` .
**Result** inactive

**Query** Which outcome did this test record for the compound `Cc1cc(C(=C2C=CC(=Nc3ccc(S(=O)(=O)O)cc3S(=O)(=O)O)C=C2)c2ccc(Nc3ccc(S(=O)(=O)O)cc3)cc2)ccc1N` ?
**Result** inactive

**Query** Would you mind telling me which call this test gave `CNC(=S)NC` ?
**Result** inactive

**Query** Dear all, I need the recorded test outcome for `Nc1ccc(O)c([N+](=O)[O-])c1` , thank you.
**Result** inactive

**Query** Recorded test outcome, item `COCCOC(=O)CC#N`
**Result** inactive

**Query** # outcome recorded in this test, key = `CC(=O)OCC(CCn1cnc2cnc(N)nc21)COC(C)=O`
**Result** inactive

**Query** Query: recorded result category for `CCC(CN)=C(c1ccccc1)c1ccccc1` in this test
**Result** inactive

**Query** Just curious, what result did CCCCCCCCNC(C)C(O)c1ccc(SC(C)C)cc1 (configuration not stated) get here?
**Result** active

**Query** # lookup: test call for `O=[N+]([O-])C1(Br)COCOC1`
**Result** inactive

**Query** Tell me the recorded outcome of this test for `O=C(Oc1cccc2cccnc12)c1ccccc1` .
**Result** inactive

**Query** How did this test come out for COC(=O)C1=C(C)NC(COC(N)=O)=C(C(=O)OC(C)C)C1c1cccc(Cl)c1Cl (configuration not stated) ?
**Result** inactive
